# assayName: Inhibition of HCV NS4A-tethered single chain NS3 serine protease by spectrophotometric assay
# Parameters: species or system Hepacivirus hominis
pKi: −log10 of the molar value.
Note: every record was labeled by where its pKi sits among lower range = under 7, middle range = from 7 up to 8, upper range = 8 and over

>  <compound>
C=CCNC(=O)C(=O)C(CCC)NC(=O)[C@@H]1[C@@H]2[C@H](CN1C(=O)[C@@H](NC(=O)N[C@@H](CN(C)C(=O)C(C)(C)C)C(C)(C)C)C(C)(C)C)C2(C)C (stereo partly drawn)

>  <assignedCategory>
lower range

$$$$
>  <compound>
C=CCNC(=O)C(=O)C(CCCC)NC(=O)[C@@H]1[C@@H]2[C@H](CN1C(=O)[C@@H](NC(=O)N[C@@H](CN1CCC(C)(C)CC1=O)C(C)(C)C)C(C)(C)C)C2(C)C (stereo partly drawn)

>  <assignedCategory>
middle range

$$$$
>  <compound>
C=CCNC(=O)C(=O)C(CCC)NC(=O)[C@@H]1[C@@H]2[C@H](CN1C(=O)[C@@H](NC(=O)N[C@@H](CN(C)C(C)=O)C(C)(C)C)C(C)(C)C)C2(C)C (stereo partly drawn)

>  <assignedCategory>
middle range

$$$$
>  <compound>
C=CCNC(=O)C(=O)C(CCC)NC(=O)[C@@H]1[C@@H]2[C@H](CN1C(=O)[C@@H](NC(=O)N[C@@H](CN1CCCCC1=O)C(C)(C)C)C1CCCCC1)C2(C)C (stereo partly drawn)

>  <assignedCategory>
upper range

$$$$
>  <compound>
C=CCNC(=O)C(=O)C(CC1CCC1)NC(=O)[C@@H]1[C@@H]2[C@H](CN1C(=O)[C@@H](NC(=O)N[C@@H](CN1CCC(C)(C)CC1=O)C(C)(C)C)C(C)(C)C)C2(C)C (stereo partly drawn)

>  <assignedCategory>
middle range

$$$$
>  <compound>
C=CCNC(=O)C(=O)C(CCC)NC(=O)[C@@H]1[C@@H]2[C@H](CN1C(=O)[C@@H](NC(=O)OC(C)(C)C)C(C)(C)C)C2(C)C (stereo partly drawn)

>  <assignedCategory>
lower range

$$$$
